molecular target: corticotropin releasing factor 1 receptor; assay: cell-based or functional assay; note: reference of the scale not given here
Ends that are not written are not given here.

Binder | CRF1R Emax [%]
ZGPPISIDLPLHLLRKMIEIEKQEKEKQQAANNRLLLDTI (C-terminal amide) [SEQ ID NO 83] | 96
IVLSLDVPIGLLQILIEIEKQEKEKQQAANNRLLLDTI-NH2 [SEQ ID NO 154] | 7
ZGPPISIDLPYYLLRKMIEIEKQEKEKQQAANNRLLLDTI (C-terminal amide) [SEQ ID NO 40] | 99
IVLSLDVPIGLLQILLEQERQEAAREQATTNARILARV-NH2 [SEQ ID NO 118] | 5
ZGPPISIDLPFQLLRKMIEIEKQEKEKQQATTNARLLDRV (C-terminal amide) [SEQ ID NO 22] | 64
ZGPPISIDLPTILLRKMIEIEKQEKEKQQAANNRLLLDTI (C-terminal amide) [SEQ ID NO 50] | 42
ZGPPISIDLPFYLLRKMIEIEKQEKEKQQAANNRLLLDTI (C-terminal amide) [SEQ ID NO 85] | 84
ZGPPISIDLPIPLLRKMIEIEKQEKEKQQAANNRLLLDTI (not fully specified; C-terminal amide) [SEQ ID NO 26] | 16
IVLSLDVPIGLLQILLEQAKQRAAREQATTNARILARV-NH2 [SEQ ID NO 110] | 9
SQEPPISLDLPLYLLREVLEMTKADQLAQQAHSNRKLLDIA-NH2 [SEQ ID NO 101] | 7.35
ZGPPISIDVPTYLLRKMIEIEKQEKEKQQATTNARILARV (C-terminal amide) [SEQ ID NO 170] | 9
SQEPPISLDLPFHLLREVLEMTKADQLAQQAHSNRKLLDIA-NH2 [SEQ ID NO 104] | 11.1
ZGPPISIDLPLYLLRKMIEIEKQEKEKQQAANNRLLLDT (C-terminal amide) [SEQ ID NO 81] | 81
IVLSLDVPIGLLQTLLELARTQSQRERAEQNRIIFDSV-NH2 [SEQ ID NO 160] | 10
